Assembled from different publications: IC50 for Autotaxin (Homo sapiens, UniProt Q13822).

Compound | Prefix operator | IC50, nM
O=C(OCc1cc(F)cc(OC(F)(F)F)c1)N1C[C@@H]2CN(C(=O)c3ccc4[nH]nnc4c3)C[C@@H]2C1 | = | 17
Cc1c(Sc2cccc(C(=O)O)c2)c2ccc(Cl)c(F)c2n1CC(=O)N1CCC(O)(C(F)(F)F)C1 (stereo not drawn) | ≤ | 500
CC(C)[C@@H](NC(=O)c1cc(C(F)(F)F)ccc1F)C(=O)N1CCC2(CC1)C(=O)N(C)C(=O)N2Cc1ccc(S(C)(=O)=O)cc1 | ≥ | 1000
Cc1cc(OCc2n[nH]c(=O)n2C)c(-c2cc(C(=O)N(C)Cc3ccccn3)ccc2F)cc1Cl | = | 9
O=C(OCc1cc(Cl)cc(Cl)c1)N1CC[C@H]2CN(C(=O)c3ccc4[nH]nnc4c3)C[C@H]2C1 (relative stereo) | = | 78
CC(C)Oc1cc(C(=O)N2C[C@@H]3[C@H](C2)[C@H]2CN(C(=O)c4ccc5[nH]nnc5c4)C[C@@H]32)cc2ccccc12 | = | 3.5
O=C(c1ccc2[nH]nnc2c1)N1C[C@@H]2[C@H](C1)[C@H]1CN(S(=O)(=O)c3ccc(-c4ccc(F)cc4)cc3)C[C@@H]21 | = | 173
CCCn1cc(-n2c(Cl)c(Sc3cccc(C(=O)O)c3)c3ccc(Cl)cc32)cn1 | < | 500
O=C(/C=C/c1ccc(OC(F)(F)F)cc1)N1C[C@@H]2[C@H](C1)[C@H]1CN(C(=O)c3ccc4[nH]nnc4c3)C[C@@H]21 | = | 8.5
N#Cc1cc(-c2cc(OC(F)(F)F)ccc2F)c(OCc2n[nH]c3ccncc23)cc1Cl | = | 28
O=C(c1ccc2[nH]nnc2c1)N1C[C@@H]2[C@H](C1)[C@H]1CN(C(=O)c3ccc4ccccc4n3)C[C@@H]21 | = | 687
Cc1c(Sc2cccc(C(=O)O)c2)c2ccc(Cl)c(F)c2n1CC(=O)N1CC(C)(C)c2ccc(F)cc21 | ≤ | 500
O=C(c1cnc(NCc2cc(OC(F)(F)F)cc(C3CC3)c2)nc1)N1CCC12CNC2 | < | 100
Cc1cc(OCc2n[nH]c(=O)n2C)c(-c2cc(OC(C)C)ccc2F)cc1Cl | = | 11
O=C(OCc1cc(Cl)cc(Cl)c1)N1CC[C@@H]2CN(C(=O)c3ccc4[nH]c(=O)oc4c3)C[C@H]2C1 (relative stereo) | = | 10
CC(C)[C@@H](NC(=O)c1cc(C(F)(F)F)ccc1F)C(=O)N1CCC2(CC1)C(=O)N(C)C(=O)N2Cc1ncccn1 | ≥ | 1000
CS(=O)(=O)c1cc(Cl)cc(COC(=O)N2CCC3(CC2)CN(C(=O)c2cccc(S(N)(=O)=O)c2)C3)c1 | = | 625
CC(C)CC(NC1CC(C(=O)O)C1(C)C)c1ccc2c(C(F)(F)F)c(O[C@H]3CC[C@@H](C)CC3)ccc2c1 (relative stereo) | ≤ | 500
CS(=O)(=O)c1cc(Cl)cc(COC(=O)N2C[C@@H]3CN(C(=O)N4CCc5[nH]nnc5C4)C[C@H]3C2)c1 | = | 19
O=C(c1ccc2[nH]nnc2c1)N1C[C@@H]2[C@H](C1)[C@H]1CN(C(=O)c3cc4cc(OC(F)(F)F)ccc4[nH]3)C[C@@H]21 | = | 16
C[C@H]1CN(CC(=O)NCCC(=O)O)C(=O)c2cc(-c3ccc(Cl)cc3)nn21 | ≥ | 1000
Cc1cccc(C(=O)N[C@@H](C(=O)N2CCC3(CC2)C(=O)N(C)CN3c2cccc(C(N)=O)c2)C(C)C)c1F | ≥ | 1000
CCCCCC1CN(Cc2cccc(C(=O)O)c2)C(=O)c2cc(-c3ccc(Cl)cc3)nn21 (stereo not drawn) | < | 10
